- method: chemical genetic growth profiling, strain panel (AID 1159580);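 further: tested at 20 µM; growth read once vehicle control cultures reached saturation at 30 °C; 1 = growth at the plate median or of vehicle wells; lower values mean less growth of the strain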
- experimental-parameters: S. cerevisiae deletion strains, growth OD, locus YLR039C, strain RIC1, stronger effect = lower value
Screen size: about 5,500 compounds; about 2,000 (36%) were called active. Roughly 18% stayed inconclusive and do not appear here. Some of the results follow.
What normalized growth was measured for each of the following?
Answers are plain numbers.

Sample records with normalized growth:
[[record]]
compound = "COC(=O)c1c(OC)cc2c(c1C)Oc1c(Cl)c(OC(C)=O)c(Cl)c(C)c1C(=O)O2"
quantity_name = "normalized growth"
readout_value = 1.02

[[record]]
compound = "O=C(OCc1ccccc1)c1ccccc1"
quantity_name = "normalized growth"
readout_value = 0.83

[[record]]
compound = "COC(=O)/C(=C1\\OC(=O)C(c2ccccc2)=C1O)c1ccccc1"
quantity_name = "normalized growth"
readout_value = 1.03

[[record]]
compound = "CC(Cc1cccc(C(F)(F)F)c1)NCCOC(=O)c1ccccc1 (configuration not stated)"
quantity_name = "normalized growth"
readout_value = 1.02

[[record]]
compound = "COC(=O)c1ccc(S(=O)(=O)N2CCC(C(N)=O)CC2)n1C"
quantity_name = "normalized growth"
readout_value = 1.01

[[record]]
compound = "CN(C)[C@@H]1C(=O)C(C(N)=O)=C(O)[C@@]2(O)C(=O)C3=C(O)c4c(O)ccc(Cl)c4[C@@](C)(O)[C@H]3C[C@@H]12"
quantity_name = "normalized growth"
readout_value = 1.01


Give normalized growth for all compounds that follow.
1. O=C1NC2CC2N1C(=O)OCc1ccccc1 (configuration not stated)
2. NC(Cn1ccc(=O)c(O)c1)C(=O)O (configuration not stated)
3. OC[C@H]1O[C@@H](O[C@@H]2[C@@H](CO)O[C@](O)(CO)[C@H]2O)[C@H](O)[C@@H](O)[C@H]1O

Reply |
1. 0.99
2. 1.04
3. 0.968
